System: TRPC4 beta (transient receptor potential cation channel C4), mouse
Experiment: potentiation of DAMGO EC20 TRPC4 response – cell-based, Fluo-4, HEK293 TRPC4beta/mu-opioid, confirmation (AID 2555)
Conditions: DAMGO EC20, Fluo-4 calcium flux, at 10 µM
The source made the active and inactive calls.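 The calls were made as follows: active = primary screen hit whose calcium fluorescence ratio, in both repeats, exceeds the weak agonist control mean by 3 SD; inactive = the rest.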
Respond with a class label; see active, inactive

Molecule | Category
Cc1ccc(S(=O)(=O)N2CCC(C(=O)OCC(=O)N(C)CC(=O)Nc3ccc(F)cc3)CC2)cc1C | inactive

IN: How was CCOC(=O)C(=NC1CCS(=O)(=O)C1)NNc1ccccc1Cl (centres undefined) classified in this test?
OUT: active

IN: How was COc1ccc(-n2ncc3c(N4CCc5ccccc54)ncnc32)cc1 classified in this test?
OUT: inactive

IN: How was COC(=O)CSc1nnc2n(-c3ccc(OC)cc3)c(=O)c3c4c(sc3n12)CCCCC4 classified in this test?
OUT: inactive
